Origin of values: patent US9840520B2

UniProt Q969S8: reported IC50 for various compounds.
Sequence (Q969S8 whole entry): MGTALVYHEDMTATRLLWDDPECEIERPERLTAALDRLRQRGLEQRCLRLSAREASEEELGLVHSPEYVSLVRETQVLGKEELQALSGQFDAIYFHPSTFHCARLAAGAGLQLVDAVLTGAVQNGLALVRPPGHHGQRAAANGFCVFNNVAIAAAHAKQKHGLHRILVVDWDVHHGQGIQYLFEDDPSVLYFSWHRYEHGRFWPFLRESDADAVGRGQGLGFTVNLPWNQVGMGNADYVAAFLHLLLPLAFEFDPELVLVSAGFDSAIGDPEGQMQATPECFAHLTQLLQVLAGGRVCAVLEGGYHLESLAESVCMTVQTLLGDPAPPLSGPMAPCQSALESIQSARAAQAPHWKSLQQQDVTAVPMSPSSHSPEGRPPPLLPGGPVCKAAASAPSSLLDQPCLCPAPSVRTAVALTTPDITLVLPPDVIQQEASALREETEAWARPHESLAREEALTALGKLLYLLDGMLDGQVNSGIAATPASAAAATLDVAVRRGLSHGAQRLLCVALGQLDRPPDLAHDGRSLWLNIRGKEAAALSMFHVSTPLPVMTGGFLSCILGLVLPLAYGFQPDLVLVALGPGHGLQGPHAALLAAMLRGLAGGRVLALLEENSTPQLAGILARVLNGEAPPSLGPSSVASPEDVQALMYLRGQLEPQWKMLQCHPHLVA
All answers are understood in µM, so give the number only.

Problem: Give reported IC50 value for Cn1cnc2c(NC3CCCCC3)nc(Nc3ccc(OCCCCCC(=O)NO)cc3)nc21 [Example 9]
Solution: 0.284

Problem: Give reported IC50 value for Cn1cnc2c(NC3CCCCC3)nc(Nc3ccc(OCCCCCCC(=O)NO)cc3)nc21 [Example 8]
Solution: 0.019

###

outcome_measure: pIC50
# reply with the number alone; pIC50 is -log10 of concentration in mol/L

Problem: Answer briefly: pIC50 recorded on HDAC-3 (Homo sapiens, UniProt O15379) for Cn1cnc2c(NC3CCCCC3)nc(Nc3ccc(OCCCCCCC(=O)NO)cc3)nc21
Sequence (O15379 whole entry): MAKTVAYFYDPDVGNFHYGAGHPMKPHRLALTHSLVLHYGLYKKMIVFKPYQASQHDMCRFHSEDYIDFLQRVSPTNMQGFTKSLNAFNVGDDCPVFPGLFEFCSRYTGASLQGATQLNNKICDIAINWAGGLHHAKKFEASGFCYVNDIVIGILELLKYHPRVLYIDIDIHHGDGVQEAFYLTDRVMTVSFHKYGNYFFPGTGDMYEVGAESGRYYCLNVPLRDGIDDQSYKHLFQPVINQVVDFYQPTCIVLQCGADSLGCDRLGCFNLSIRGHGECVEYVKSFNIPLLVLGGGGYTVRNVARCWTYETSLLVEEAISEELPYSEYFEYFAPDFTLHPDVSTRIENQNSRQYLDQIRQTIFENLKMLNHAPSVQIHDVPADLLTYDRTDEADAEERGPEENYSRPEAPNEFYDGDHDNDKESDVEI
Sequence (Q9Y618 395-489 partner limits assumed): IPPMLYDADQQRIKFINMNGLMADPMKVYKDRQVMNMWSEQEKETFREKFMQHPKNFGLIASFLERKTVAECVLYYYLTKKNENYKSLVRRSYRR
Solution: 6.85
